// values below are reported IC50
Target: UniProt:P0A8V2
Sequence (P0A8V2 whole entry): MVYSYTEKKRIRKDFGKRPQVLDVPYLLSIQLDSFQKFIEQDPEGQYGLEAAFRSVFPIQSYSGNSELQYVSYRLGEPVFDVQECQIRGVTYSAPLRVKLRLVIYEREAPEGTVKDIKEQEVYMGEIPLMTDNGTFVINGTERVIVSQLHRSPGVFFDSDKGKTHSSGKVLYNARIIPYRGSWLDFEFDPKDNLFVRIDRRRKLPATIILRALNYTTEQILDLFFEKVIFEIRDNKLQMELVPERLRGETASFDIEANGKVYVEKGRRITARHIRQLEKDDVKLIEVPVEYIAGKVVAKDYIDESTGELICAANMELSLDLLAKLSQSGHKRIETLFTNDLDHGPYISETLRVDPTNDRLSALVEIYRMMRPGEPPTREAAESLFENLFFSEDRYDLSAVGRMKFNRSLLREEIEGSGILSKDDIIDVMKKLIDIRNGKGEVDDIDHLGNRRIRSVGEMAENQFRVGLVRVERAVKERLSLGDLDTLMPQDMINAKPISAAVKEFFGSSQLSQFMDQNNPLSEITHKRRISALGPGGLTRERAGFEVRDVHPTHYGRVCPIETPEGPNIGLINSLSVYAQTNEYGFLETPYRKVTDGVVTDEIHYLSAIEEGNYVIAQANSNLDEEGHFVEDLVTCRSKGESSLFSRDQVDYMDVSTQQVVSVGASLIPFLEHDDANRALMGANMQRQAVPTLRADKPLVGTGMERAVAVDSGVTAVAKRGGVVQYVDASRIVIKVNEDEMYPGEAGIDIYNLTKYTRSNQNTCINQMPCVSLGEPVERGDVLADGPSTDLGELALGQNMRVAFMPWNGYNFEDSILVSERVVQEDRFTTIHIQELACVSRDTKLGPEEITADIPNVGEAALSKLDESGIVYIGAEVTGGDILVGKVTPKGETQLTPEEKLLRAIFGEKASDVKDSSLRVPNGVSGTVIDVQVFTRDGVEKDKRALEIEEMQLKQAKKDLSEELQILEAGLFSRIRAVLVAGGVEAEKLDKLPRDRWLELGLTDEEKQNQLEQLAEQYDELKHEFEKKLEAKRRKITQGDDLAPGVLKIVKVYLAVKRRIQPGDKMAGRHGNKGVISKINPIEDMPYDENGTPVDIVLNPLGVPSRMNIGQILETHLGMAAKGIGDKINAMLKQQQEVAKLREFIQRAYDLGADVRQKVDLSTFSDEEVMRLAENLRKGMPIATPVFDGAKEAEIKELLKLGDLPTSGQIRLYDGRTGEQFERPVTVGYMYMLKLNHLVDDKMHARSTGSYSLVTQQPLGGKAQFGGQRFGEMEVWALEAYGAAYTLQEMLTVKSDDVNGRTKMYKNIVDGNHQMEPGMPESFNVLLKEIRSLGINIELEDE
Sequence (P0A8T7 whole entry partner): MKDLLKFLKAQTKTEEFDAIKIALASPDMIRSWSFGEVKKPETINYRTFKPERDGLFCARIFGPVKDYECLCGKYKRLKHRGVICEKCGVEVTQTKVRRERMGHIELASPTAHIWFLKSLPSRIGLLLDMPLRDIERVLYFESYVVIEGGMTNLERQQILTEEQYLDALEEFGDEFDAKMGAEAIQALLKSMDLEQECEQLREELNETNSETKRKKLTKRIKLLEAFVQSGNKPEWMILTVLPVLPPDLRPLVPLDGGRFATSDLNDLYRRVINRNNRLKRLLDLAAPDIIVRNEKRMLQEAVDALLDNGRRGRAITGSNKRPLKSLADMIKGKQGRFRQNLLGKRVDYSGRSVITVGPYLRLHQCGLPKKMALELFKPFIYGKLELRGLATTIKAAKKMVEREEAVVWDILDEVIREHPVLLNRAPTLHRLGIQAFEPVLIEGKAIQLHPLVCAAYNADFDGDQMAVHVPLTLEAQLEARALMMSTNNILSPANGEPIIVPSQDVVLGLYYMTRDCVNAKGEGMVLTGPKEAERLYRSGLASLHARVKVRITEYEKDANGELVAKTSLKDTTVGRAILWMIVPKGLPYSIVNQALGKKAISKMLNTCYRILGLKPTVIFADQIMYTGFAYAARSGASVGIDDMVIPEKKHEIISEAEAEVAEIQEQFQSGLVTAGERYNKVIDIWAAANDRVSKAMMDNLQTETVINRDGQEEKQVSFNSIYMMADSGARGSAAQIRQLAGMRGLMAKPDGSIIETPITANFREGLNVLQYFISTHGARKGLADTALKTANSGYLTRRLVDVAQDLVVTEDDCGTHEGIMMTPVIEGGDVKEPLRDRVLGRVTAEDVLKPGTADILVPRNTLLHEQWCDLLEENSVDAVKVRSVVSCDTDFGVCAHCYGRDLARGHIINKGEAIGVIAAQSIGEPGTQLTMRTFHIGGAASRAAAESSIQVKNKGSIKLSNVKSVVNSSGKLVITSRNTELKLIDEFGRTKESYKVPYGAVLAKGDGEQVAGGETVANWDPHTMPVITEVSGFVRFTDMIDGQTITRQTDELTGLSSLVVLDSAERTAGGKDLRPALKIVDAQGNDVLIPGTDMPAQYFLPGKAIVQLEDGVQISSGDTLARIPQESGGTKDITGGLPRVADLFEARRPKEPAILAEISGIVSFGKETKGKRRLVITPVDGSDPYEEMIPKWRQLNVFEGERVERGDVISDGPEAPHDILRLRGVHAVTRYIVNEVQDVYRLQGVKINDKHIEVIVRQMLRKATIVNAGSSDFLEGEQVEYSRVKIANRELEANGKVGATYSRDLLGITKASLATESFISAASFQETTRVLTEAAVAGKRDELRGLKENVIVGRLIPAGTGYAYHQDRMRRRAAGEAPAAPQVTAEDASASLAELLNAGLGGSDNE
Sequence (P0A7Z4 whole entry partner): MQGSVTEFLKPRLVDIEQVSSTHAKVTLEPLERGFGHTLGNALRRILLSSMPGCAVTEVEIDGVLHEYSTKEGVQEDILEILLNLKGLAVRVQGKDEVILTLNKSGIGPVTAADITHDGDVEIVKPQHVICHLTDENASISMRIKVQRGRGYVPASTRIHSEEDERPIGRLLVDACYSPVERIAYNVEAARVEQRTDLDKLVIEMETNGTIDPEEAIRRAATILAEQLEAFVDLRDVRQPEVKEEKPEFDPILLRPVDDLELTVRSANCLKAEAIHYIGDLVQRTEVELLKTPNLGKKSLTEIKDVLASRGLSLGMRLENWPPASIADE
Sequence (P0A800 whole entry partner): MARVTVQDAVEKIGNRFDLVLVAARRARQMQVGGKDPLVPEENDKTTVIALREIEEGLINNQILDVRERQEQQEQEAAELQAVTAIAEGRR
Sequence (P00579 whole entry partner): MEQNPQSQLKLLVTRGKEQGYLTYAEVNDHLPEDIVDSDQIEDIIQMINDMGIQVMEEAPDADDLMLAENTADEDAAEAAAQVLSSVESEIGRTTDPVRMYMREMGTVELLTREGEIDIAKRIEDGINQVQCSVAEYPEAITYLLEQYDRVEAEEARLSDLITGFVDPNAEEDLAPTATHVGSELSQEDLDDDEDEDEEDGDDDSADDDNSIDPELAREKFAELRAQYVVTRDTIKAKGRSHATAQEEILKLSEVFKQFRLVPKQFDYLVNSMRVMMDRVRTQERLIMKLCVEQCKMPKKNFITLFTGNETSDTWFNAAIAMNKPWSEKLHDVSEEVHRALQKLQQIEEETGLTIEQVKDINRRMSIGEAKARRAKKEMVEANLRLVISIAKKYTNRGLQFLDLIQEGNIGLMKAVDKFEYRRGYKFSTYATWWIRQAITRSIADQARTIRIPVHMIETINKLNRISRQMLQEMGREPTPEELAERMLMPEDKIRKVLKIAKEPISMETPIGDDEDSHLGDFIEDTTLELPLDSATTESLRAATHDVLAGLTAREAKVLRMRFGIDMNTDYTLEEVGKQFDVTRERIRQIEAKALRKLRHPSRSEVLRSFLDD
Form entry: value (nM) — number only.

Molecule	Tested system	Scale unit	Reported result
CO[C@H]1/C=C/O[C@@]2(C)Oc3c(C)c(O)c4c(=O)c(c5oc6cc(N7CCN(CC(C)C)CC7)cc(OCc7ccc(CN8CCN(C(=O)Cn9ccnc9)CC8)cc7)c6nc-5c4c3C2=O)NC(=O)/C(C)=C\C=C\[C@H](C)[C@H](O)[C@@H](C)[C@@H](O)[C@@H](C)[C@H](OC(C)=O)[C@@H]1C [Compound 17c]	UniProt:P0A8V2	nM	20

Field: next molecule
Tell me reported IC50 for CO[C@H]1/C=C/O[C@@]2(C)Oc3c(C)c(O)c4c(=O)c(c5oc6cccc(OCc7cccc(CN8CCN(C(=O)CN9CCOCC9)CC8)c7)c6nc-5c4c3C2=O)NC(=O)/C(C)=C\C=C\[C@H](C)[C@H](O)[C@@H](C)[C@@H](O)[C@@H](C)[C@H](OC(C)=O)[C@@H]1C [Compound 11f] , tested with UniProt:P0A8V2.
10

====

Test system: DPX2 cells
Conditions: 6.25 μM, 24 h
Measurement name: DPX2 Viability @ 6.25 μM (%)
Form entry: value (%) — number only.

Compound	Tested system	DPX2 Viability @ 6.25 μM, %
CO[C@H]1/C=C/O[C@@]2(C)Oc3c(C)c(O)c4c(=O)c(c5oc6cccc(OCc7cccc(CN8CCN(C(=O)Cc9ccccc9)CC8)c7)c6nc-5c4c3C2=O)NC(=O)/C(C)=C\C=C\[C@H](C)[C@H](O)[C@@H](C)[C@@H](O)[C@@H](C)[C@H](OC(C)=O)[C@@H]1C [Compound 11g]	DPX2 cells	88
CO[C@H]1/C=C/O[C@@]2(C)Oc3c(C)c(O)c4c(=O)c(c5oc6cc(N7CCC(C(=O)O)CC7)cc(OCc7ccc(CN8CCOCC8)cc7)c6nc-5c4c3C2=O)NC(=O)/C(C)=C\C=C\[C@H](C)[C@H](O)[C@@H](C)[C@@H](O)[C@@H](C)[C@H](OC(C)=O)[C@@H]1C [Compound 17k]	DPX2 cells	131
CO[C@H]1/C=C/O[C@@]2(C)Oc3c(C)c(O)c4c(=O)c(c5oc6cc(C=Nc7ccc(N8CCOCC8)cc7)cc(N7CCN(C)CC7)c6nc-5c4c3C2=O)NC(=O)/C(C)=C\C=C\[C@H](C)[C@H](O)[C@@H](C)[C@@H](O)[C@@H](C)[C@H](OC(C)=O)[C@@H]1C [Compound 32]	DPX2 cells	116

Field: next compound
Tell me reported DPX2 Viability @ 6.25 μM for CO[C@H]1/C=C/O[C@@]2(C)Oc3c(C)c(O)c4c(=O)c(c5oc6cc(N7CCN(CC(C)C)CC7)cc(OCc7ccc(CN8CCOCC8)cc7)c6nc-5c4c3C2=O)NC(=O)/C(C)=C\C=C\[C@H](C)[C@H](O)[C@@H](C)[C@@H](O)[C@@H](C)[C@H](OC(C)=O)[C@@H]1C [Compound 17e] , tested with DPX2 cells.
113

====

Tested on: DPX2 cells
Settings: 6.25 μM, 24 h
Measurement name: DPX2 Viability @ 6.25 μM (%)
Form entry: value (%) — number only.

Some solved entries appear below for comparison.
Compound	Tested system	Measurement name	Reported result
COC(=O)N1CCN(c2cc(C)c3nc4c5c6c7c(C)c(O)c5c(=O)c(c-4oc3c2)NC(=O)/C(C)=C\C=C\[C@H](C)[C@H](O)[C@@H](C)[C@@H](O)[C@@H](C)[C@H](OC(C)=O)[C@H](C)[C@@H](OC)/C=C/O[C@@](C)(O7)C6=O)CC1 [Compound 26g]	DPX2 cells	DPX2 Viability @ 6.25 μM	111
CO[C@H]1/C=C/O[C@@]2(C)Oc3c(C)c(O)c4c(=O)c(c5oc6cccc(OCc7cccc(CN8CCN(C(=O)Cn9ccnc9)CC8)c7)c6nc-5c4c3C2=O)NC(=O)/C(C)=C\C=C\[C@H](C)[C@H](O)[C@@H](C)[C@@H](O)[C@@H](C)[C@H](OC(C)=O)[C@@H]1C [Compound 11e]	DPX2 cells	DPX2 Viability @ 6.25 μM	105
CO[C@H]1/C=C/O[C@@]2(C)Oc3c(C)c(O)c4c(=O)c(c5oc6cc(N7CCN(CC(C)C)CC7)cc(OCCCCN7CCN(CCn8ccnc8)CC7)c6nc-5c4c3C2=O)NC(=O)/C(C)=C\C=C\[C@H](C)[C@H](O)[C@@H](C)[C@@H](O)[C@@H](C)[C@H](OC(C)=O)[C@@H]1C	DPX2 cells	DPX2 Viability @ 6.25 μM	120
CO[C@H]1/C=C/O[C@@]2(C)Oc3c(C)c(O)c4c(=O)c(c5oc6cc(N7CCN(CC(C)C)CC7)cc(OCCCCN7CCOCC7)c6nc-5c4c3C2=O)NC(=O)/C(C)=C\C=C\[C@H](C)[C@H](O)[C@@H](C)[C@@H](O)[C@@H](C)[C@H](OC(C)=O)[C@@H]1C	DPX2 cells	DPX2 Viability @ 6.25 μM	102
CCOC(=O)N1CCN(c2cc(C)c3nc4c5c6c7c(C)c(O)c5c(=O)c(c-4oc3c2)NC(=O)/C(C)=C\C=C\[C@H](C)[C@H](O)[C@@H](C)[C@@H](O)[C@@H](C)[C@H](OC(C)=O)[C@H](C)[C@@H](OC)/C=C/O[C@@](C)(O7)C6=O)CC1 [Compound 26h]	DPX2 cells	DPX2 Viability @ 6.25 μM	118
CO[C@H]1/C=C/O[C@@]2(C)Oc3c(C)c(O)c4c(=O)c(c5oc6cc(C)cc(N7CCN(CC(C)C)CC7)c6nc-5c4c3C2=O)NC(=O)/C(C)=C\C=C\[C@H](C)[C@H](O)[C@@H](C)[C@@H](O)[C@@H](C)[C@H](OC(C)=O)[C@@H]1C [Compound 30c]	DPX2 cells	DPX2 Viability @ 6.25 μM	93
CO[C@H]1/C=C/O[C@@]2(C)Oc3c(C)c(O)c4c(=O)c(c5oc6cccc(OCc7cccc(CN8CCN(C(C)=O)CC8)c7)c6nc-5c4c3C2=O)NC(=O)/C(C)=C\C=C\[C@H](C)[C@H](O)[C@@H](C)[C@@H](O)[C@@H](C)[C@H](OC(C)=O)[C@@H]1C [Compound 11c]	DPX2 cells	DPX2 Viability @ 6.25 μM	103
CO[C@H]1/C=C/O[C@@]2(C)Oc3c(C)c(O)c4c(=O)c(c5oc6cc(N7CCN(CCn8ccnc8)CC7)cc(C)c6nc-5c4c3C2=O)NC(=O)/C(C)=C\C=C\[C@H](C)[C@H](O)[C@@H](C)[C@@H](O)[C@@H](C)[C@H](OC(C)=O)[C@@H]1C [Compound 26c]	DPX2 cells	DPX2 Viability @ 6.25 μM	108

Tell me reported DPX2 Viability @ 6.25 μM for CO[C@H]1/C=C/O[C@@]2(C)Oc3c(C)c(O)c4c(=O)c(c5oc6cc(N7CCN(C(=O)c8ccc(-c9ccc(C(N)=O)cc9)cc8)CC7)cc(OCc7ccc(CN8CCOCC8)cc7)c6nc-5c4c3C2=O)NC(=O)/C(C)=C\C=C\[C@H](C)[C@H](O)[C@@H](C)[C@@H](O)[C@@H](C)[C@H](OC(C)=O)[C@@H]1C [Compound 17t] , tested with DPX2 cells.
100

Tell me reported DPX2 Viability @ 6.25 μM for CO[C@H]1/C=C/O[C@@]2(C)Oc3c(C)c(O)c4c(=O)c(c5oc6cc(N7CCN(C8CCN(C)CC8)CC7)cc(OCc7ccc(CN8CCOCC8)cc7)c6nc-5c4c3C2=O)NC(=O)/C(C)=C\C=C\[C@H](C)[C@H](O)[C@@H](C)[C@@H](O)[C@@H](C)[C@H](OC(C)=O)[C@@H]1C [Compound 17h] , tested with DPX2 cells.
94

Tell me reported DPX2 Viability @ 6.25 μM for CO[C@H]1/C=C/O[C@@]2(C)Oc3c(C)c(O)c4c(=O)c(c5oc6cc(N7CCN(C)CC7)cc(OCCCCN7CCN(C(=O)Cn8ccnc8)CC7)c6nc-5c4c3C2=O)NC(=O)/C(C)=C\C=C\[C@H](C)[C@H](O)[C@@H](C)[C@@H](O)[C@@H](C)[C@H](OC(C)=O)[C@@H]1C , tested with DPX2 cells.
108

====

// values below are reported hPXR Fold Act. (lucif) @ 25 μM
Molecular target: human pregnane X receptor (hPXR) (Homo sapiens)
Sequence (O75469 whole entry): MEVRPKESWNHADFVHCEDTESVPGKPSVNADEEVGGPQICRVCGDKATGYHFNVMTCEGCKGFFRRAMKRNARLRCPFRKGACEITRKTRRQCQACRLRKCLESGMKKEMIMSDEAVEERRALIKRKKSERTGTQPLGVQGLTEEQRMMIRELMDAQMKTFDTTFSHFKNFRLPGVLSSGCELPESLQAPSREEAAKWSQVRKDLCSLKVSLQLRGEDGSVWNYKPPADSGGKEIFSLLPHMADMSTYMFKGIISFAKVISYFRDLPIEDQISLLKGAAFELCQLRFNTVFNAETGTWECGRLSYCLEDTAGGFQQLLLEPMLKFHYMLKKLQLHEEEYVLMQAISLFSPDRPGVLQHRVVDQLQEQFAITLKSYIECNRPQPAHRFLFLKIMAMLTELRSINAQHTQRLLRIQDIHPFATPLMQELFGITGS
Form entry: value (fold) — number only.

Some solved entries appear below for comparison.
Molecule	hPXR Fold Act. (lucif) @ 25 μM (fold)
CO[C@H]1/C=C/O[C@@]2(C)Oc3c(C)c(O)c4c(=O)c(c5oc6cc(C)cc(N7CCN(C)CC7)c6nc-5c4c3C2=O)NC(=O)/C(C)=C\C=C\[C@H](C)[C@H](O)[C@@H](C)[C@@H](O)[C@@H](C)[C@H](OC(C)=O)[C@@H]1C [Compound 30a]	20.4
CO[C@H]1/C=C/O[C@@]2(C)Oc3c(C)c(O)c4c(=O)c(c5oc6cc(N7CCC(CC(=O)O)CC7)cc(OCc7ccc(CN8CCOCC8)cc7)c6nc-5c4c3C2=O)NC(=O)/C(C)=C\C=C\[C@H](C)[C@H](O)[C@@H](C)[C@@H](O)[C@@H](C)[C@H](OC(C)=O)[C@@H]1C [Compound 17l]	1.9
CO[C@H]1/C=C/O[C@@]2(C)Oc3c(C)c(O)c4c(=O)c(c5oc6cc(N7CCC(CC(=O)O)CC7)cc(N7CCC(CC(=O)O)CC7)c6nc-5c4c3C2=O)NC(=O)/C(C)=C\C=C\[C@H](C)[C@H](O)[C@@H](C)[C@@H](O)[C@@H](C)[C@H](OC(C)=O)[C@@H]1C [Compound 17v]	1.6

Field: next molecule
So what's the measured hPXR Fold Act. (lucif) @ 25 μM for this one? CO[C@H]1/C=C/O[C@@]2(C)Oc3c(C)c(O)c4c(=O)c(c5oc6cc(N7CCN(C(=O)c8cccc(-c9ccccn9)c8)CC7)cc(OCc7ccc(CN8CCOCC8)cc7)c6nc-5c4c3C2=O)NC(=O)/C(C)=C\C=C\[C@H](C)[C@H](O)[C@@H](C)[C@@H](O)[C@@H](C)[C@H](OC(C)=O)[C@@H]1C [Compound 17r]
1

Data origin, for the record: patent US20250188092A1
